The entries below come with measured pIC50 values attached.
Target: truncated human 11β-HSD-1 enzyme (24-287AA) (Homo sapiens, UniProt P28845)
Construct: truncated human 11β-HSD-1 enzyme (24-287AA); made in house; host or cells: E. coli (lysate)
Sequence (P28845 24-287): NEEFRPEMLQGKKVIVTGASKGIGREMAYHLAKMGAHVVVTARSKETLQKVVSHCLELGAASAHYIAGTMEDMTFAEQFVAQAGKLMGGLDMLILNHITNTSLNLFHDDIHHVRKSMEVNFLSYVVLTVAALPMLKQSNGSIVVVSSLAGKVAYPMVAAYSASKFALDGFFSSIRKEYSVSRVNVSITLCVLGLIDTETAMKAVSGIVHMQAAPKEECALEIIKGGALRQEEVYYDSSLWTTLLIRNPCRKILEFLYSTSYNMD
Test: Human 11β-HSD-1 enzymatic SPA assay
Type: biochemical
Details: human enzyme, SPA
Protocol: The ability of test compounds to inhibit human 11β-HSD-1 enzymatic activity in vitro was evaluated in a Scintillation Proximity Assay (SPA). […] The reaction was stopped by adding a non-specific 11β-HSD inhibitor, 18β-glycyrrhetinic acid. […] The reaction plate was shaken at room temperature and the radioactivity bound to SPA beads was then measured on a β-scintillation counter. […] After shaking for 30 minutes, plates were read on a liquid scintillation counter Topcount. […]
pIC50: −log10 of the molar value.
OBSERVATION_TYPE: pIC50

1. CC(C)(C(=O)NC1C2CC3CC1CC(C(N)=O)(C3)C2)N1CCN(c2cnccn2)CC1 (stereo not shown); 7.46
2. CC(C)(C(=O)N[C@@H]1[C@@H]2C[C@@H]3C[C@H]1C[C@@](CC(=O)O)(C3)C2)N1CCN(c2ccc(C(F)(F)F)cn2)CC1; 7.10
3. CC1(C)C(=O)N(C2C3CC4CC2CC(C(N)=O)(C4)C3)CC1COc1ccc(-n2ccnc2)cc1 (stereo not shown); 7.12
4. CC(C)(Oc1ccc(F)cc1Cl)C(=O)N[C@@H]1[C@@H]2C[C@@H]3C[C@H]1C[C@@](S(N)(=O)=O)(C3)C2; 7.05
5. CC(C)(OCc1ccc(C(F)(F)F)cc1)C(=O)N[C@@H]1[C@@H]2C[C@@H]3C[C@H]1C[C@@](C(N)=O)(C3)C2; 7.55
6. O=C(O)C12CC3CC(C1)C(NC(=O)C1(c4ccc(Cl)cc4)CCC1)C(C3)C2 (stereo not shown); 7.37
7. CC(C)(Oc1ccc(Cl)cc1)C(=O)N[C@@H]1[C@@H]2C[C@@H]3C[C@H]1C[C@@](CC(N)=O)(C3)C2; 7.37
8. CC(C)(C(=O)N[C@@H]1[C@@H]2C[C@@H]3C[C@H]1C[C@@](C(=O)O)(C3)C2)c1ccccc1; 7.09
9. CC(C)(Oc1ccc(Cl)cc1)C(=O)NC1C2CC3CC1CC(Cc1nn[nH]n1)(C3)C2 (stereo not shown); 7.39
10. Cc1ccccc1CN1CCC(C)(C(=O)NC2C3CC4CC(C3)C(C(N)=O)C2C4)C1=O (stereo not shown); 7.64

* * *

Molecular target: human 11β-HSD-2 (Homo sapiens)
Sequence (P80365 1-405): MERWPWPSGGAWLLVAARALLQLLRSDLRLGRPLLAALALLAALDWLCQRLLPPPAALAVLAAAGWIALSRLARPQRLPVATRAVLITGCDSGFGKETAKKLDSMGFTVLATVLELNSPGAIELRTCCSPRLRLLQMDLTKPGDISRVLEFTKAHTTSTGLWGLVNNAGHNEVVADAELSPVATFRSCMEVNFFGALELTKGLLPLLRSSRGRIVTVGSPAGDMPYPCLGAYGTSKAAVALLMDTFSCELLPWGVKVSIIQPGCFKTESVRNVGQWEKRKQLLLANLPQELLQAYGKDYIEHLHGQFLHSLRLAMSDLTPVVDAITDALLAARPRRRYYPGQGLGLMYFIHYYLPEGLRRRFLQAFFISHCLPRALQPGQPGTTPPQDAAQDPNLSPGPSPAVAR
Experiment: Human 11β-HSD-2 enzymatic SPA assay
Assay type: biochemical
Details: human enzyme, SPA
OBSERVATION_TYPE: IC50

1. CC1(C)C(=O)N(C2C3CC4CC2CC(C(N)=O)(C4)C3)CC1COc1ccc(C(F)(F)F)cn1 (centres unmarked); 1.36 µM
2. CC(C)(C(=O)N[C@@H]1[C@@H]2C[C@@H]3C[C@H]1C[C@@](C(N)=O)(C3)C2)N1CCN(c2ccccn2)CC1; > 30 µM
3. O=C(CN1CCN(c2ccc(C(F)(F)F)cn2)CC1)N[C@H]1[C@@H]2C[C@@H]3C[C@H]1C[C@@](F)(C3)C2; > 10 µM
4. CC(C)(C(=O)N[C@@H]1[C@@H]2C[C@@H]3C[C@H]1C[C@@](CC(=O)O)(C3)C2)N1CCN(c2ccc(C(F)(F)F)cn2)CC1; > 10 µM
5. CC(C)(C(=O)NC1C2CC3CC1CC(C(N)=O)(C3)C2)N1CCN(c2cnccn2)CC1 (centres unmarked); > 30 µM
